- System: E. faecalis VRE 53
- assay-summary: MIC, broth microdilution, vancomycin-resistant E. faecalis VRE 53 (VanA)
- Assay type: cell-based, Enterococcus faecalis
- measurement-parameters: Enterococcus faecalis VRE 53 (vancomycin-resistant); read-out: MIC
experimental-endpoint: MIC (µM)
Reply numerically in µM, unit not repeated.

Entry under review: CNC(CC(C)C)C(=O)NC1C(=O)NC(CC(N)=O)C(=O)NC2C(=O)NC3C(=O)NC(C(=O)NC(C(=O)NCCCNC(=O)c4ccc(C(F)(F)F)cc4)c4cc(O)cc(O)c4-c4cc3ccc4O)C(O)c3ccc(c(Cl)c3)Oc3cc2cc(c3OC2OC(CO)C(O)C(O)C2OC2CC(C)(N)C(O)C(C)O2)Oc2ccc(cc2Cl)C1O (stereo not drawn) . Reported MIC? 50

Now try CN[C@H](CC(C)C)C(=O)N[C@H]1C(=O)N[C@@H](CC(N)=O)C(=O)N[C@H]2C(=O)N[C@H]3C(=O)N[C@H](C(=O)N[C@H](C(=O)NCC(=O)Nc4cc(C)cc(C)c4)c4cc(O)cc(O)c4-c4cc3ccc4O)[C@H](O)c3ccc(c(Cl)c3)Oc3cc2cc(c3O[C@@H]2O[C@H](CO)[C@@H](O)[C@H](O)[C@H]2O[C@H]2C[C@](C)(N)[C@H](O)[C@H](C)O2)Oc2ccc(cc2Cl)[C@H]1O . 12.5

Now try CN[C@H](CC(C)C)C(=O)N[C@H]1C(=O)N[C@@H](CC(N)=O)C(=O)N[C@H]2C(=O)N[C@H]3C(=O)N[C@H](C(=O)N[C@H](C(=O)NCC(=O)Nc4ccc(C#Cc5ccccc5)cc4)c4cc(O)cc(O)c4-c4cc3ccc4O)[C@H](O)c3ccc(c(Cl)c3)Oc3cc2cc(c3O[C@@H]2O[C@H](CO)[C@@H](O)[C@H](O)[C@H]2O[C@H]2C[C@](C)(N)[C@H](O)[C@H](C)O2)Oc2ccc(cc2Cl)[C@H]1O . 3.13

###

- Tested on: E. faecalis VRE 6
- assay-summary: MIC, broth microdilution, vancomycin-resistant E. faecalis VRE 6 (VanA)
- Assay type: cell-based, Enterococcus faecalis
- measurement-parameters: Enterococcus faecalis VRE 6 (vancomycin-resistant); read-out: MIC
MIC less than 3 µM is criterion met; MIC greater than or equal to 3 µM is criterion not met.

Strictly below 3 µM: is that where MIC of CCCCCCn1cc(-c2ccc(NC(=O)CNC(=O)C3NC(=O)C4NC(=O)C(NC(=O)C5NC(=O)C(CC(N)=O)NC(=O)C(NC(=O)C(CC(C)C)NC)C(O)c6ccc(c(Cl)c6)Oc6cc5cc(c6OC5OC(CO)C(O)C(O)C5OC5CC(C)(N)C(O)C(C)O5)Oc5ccc(cc5Cl)C4O)c4ccc(O)c(c4)-c4c(O)cc(O)cc43)cc2)nn1 (stereo not shown) sits? criterion not met

Now try C#Cc1ccc(/C=C/C(=O)NCCNC(=O)[C@H]2NC(=O)[C@H]3NC(=O)[C@H](NC(=O)[C@@H]4NC(=O)[C@H](CC(N)=O)NC(=O)[C@H](NC(=O)[C@@H](CC(C)C)NC)[C@H](O)c5ccc(c(Cl)c5)Oc5cc4cc(c5O[C@@H]4O[C@H](CO)[C@@H](O)[C@H](O)[C@H]4O[C@H]4C[C@](C)(N)[C@H](O)[C@H](C)O4)Oc4ccc(cc4Cl)[C@H]3O)c3ccc(O)c(c3)-c3c(O)cc(O)cc32)cc1 . criterion not met

Now try CN[C@H](CC(C)C)C(=O)N[C@H]1C(=O)N[C@@H](CC(N)=O)C(=O)N[C@H]2C(=O)N[C@H]3C(=O)N[C@H](C(=O)N[C@H](C(=O)NCC(=O)Nc4ccccc4)c4cc(O)cc(O)c4-c4cc3ccc4O)[C@H](O)c3ccc(c(Cl)c3)Oc3cc2cc(c3O[C@@H]2O[C@H](CO)[C@@H](O)[C@H](O)[C@H]2O[C@H]2C[C@](C)(N)[C@H](O)[C@H](C)O2)Oc2ccc(cc2Cl)[C@H]1O . criterion not met

Now try CN[C@H](CC(C)C)C(=O)N[C@H]1C(=O)N[C@@H](CC(N)=O)C(=O)N[C@H]2C(=O)N[C@H]3C(=O)N[C@H](C(=O)N[C@H](C(=O)NCC(=O)Nc4ccc([N+](=O)[O-])cc4)c4cc(O)cc(O)c4-c4cc3ccc4O)[C@H](O)c3ccc(c(Cl)c3)Oc3cc2cc(c3O[C@@H]2O[C@H](CO)[C@@H](O)[C@H](O)[C@H]2O[C@H]2C[C@](C)(N)[C@H](O)[C@H](C)O2)Oc2ccc(cc2Cl)[C@H]1O . criterion not met

Now try CN[C@H](CC(C)C)C(=O)N[C@H]1C(=O)N[C@@H](CC(N)=O)C(=O)N[C@H]2C(=O)N[C@H]3C(=O)N[C@H](C(=O)N[C@H](C(=O)NCCNC(=O)/C=C/c4ccc(OC)cc4)c4cc(O)cc(O)c4-c4cc3ccc4O)[C@H](O)c3ccc(c(Cl)c3)Oc3cc2cc(c3O[C@@H]2O[C@H](CO)[C@@H](O)[C@H](O)[C@H]2O[C@H]2C[C@](C)(N)[C@H](O)[C@H](C)O2)Oc2ccc(cc2Cl)[C@H]1O . criterion met

Now try CN[C@H](CC(C)C)C(=O)N[C@H]1C(=O)N[C@@H](CC(N)=O)C(=O)N[C@H]2C(=O)N[C@H]3C(=O)N[C@H](C(=O)N[C@H](C(=O)NCC(=O)Nc4ccc(Nc5ccccc5)cc4)c4cc(O)cc(O)c4-c4cc3ccc4O)[C@H](O)c3ccc(c(Cl)c3)Oc3cc2cc(c3O[C@@H]2O[C@H](CO)[C@@H](O)[C@H](O)[C@H]2O[C@H]2C[C@](C)(N)[C@H](O)[C@H](C)O2)Oc2ccc(cc2Cl)[C@H]1O . criterion met

Now try CN[C@H](CC(C)C)C(=O)N[C@H]1C(=O)N[C@@H](CC(N)=O)C(=O)N[C@H]2C(=O)N[C@H]3C(=O)N[C@H](C(=O)N[C@H](C(=O)NCC(=O)Nc4cc(C)cc(C)c4)c4cc(O)cc(O)c4-c4cc3ccc4O)[C@H](O)c3ccc(c(Cl)c3)Oc3cc2cc(c3O[C@@H]2O[C@H](CO)[C@@H](O)[C@H](O)[C@H]2O[C@H]2C[C@](C)(N)[C@H](O)[C@H](C)O2)Oc2ccc(cc2Cl)[C@H]1O . criterion not met

Now try CCCCC[N+](C)(C)CCCNC(=O)c1ccc(NC(=O)CNC(=O)C2NC(=O)C3NC(=O)C(NC(=O)C4NC(=O)C(CC(N)=O)NC(=O)C(NC(=O)C(CC(C)C)NC)C(O)c5ccc(c(Cl)c5)Oc5cc4cc(c5OC4OC(CO)C(O)C(O)C4OC4CC(C)(N)C(O)C(C)O4)Oc4ccc(cc4Cl)C3O)c3ccc(O)c(c3)-c3c(O)cc(O)cc32)cc1 (stereo not shown) . criterion not met

Now try CN[C@H](CC(C)C)C(=O)N[C@H]1C(=O)N[C@@H](CC(N)=O)C(=O)N[C@H]2C(=O)N[C@H]3C(=O)N[C@H](C(=O)N[C@H](C(=O)NCCNC(=O)/C=C/c4ccc(NS(=O)(=O)c5ccc(C(C)C)cc5)cc4)c4cc(O)cc(O)c4-c4cc3ccc4O)[C@H](O)c3ccc(c(Cl)c3)Oc3cc2cc(c3O[C@@H]2O[C@H](CO)[C@@H](O)[C@H](O)[C@H]2O[C@H]2C[C@](C)(N)[C@H](O)[C@H](C)O2)Oc2ccc(cc2Cl)[C@H]1O . criterion not met

Now try CNC(CC(C)C)C(=O)NC1C(=O)NC(CC(N)=O)C(=O)NC2C(=O)NC3C(=O)NC(C(=O)NC(C(=O)NCCCNC(=O)c4cc5ccccc5[nH]4)c4cc(O)cc(O)c4-c4cc3ccc4O)C(O)c3ccc(c(Cl)c3)Oc3cc2cc(c3OC2OC(CO)C(O)C(O)C2OC2CC(C)(N)C(O)C(C)O2)Oc2ccc(cc2Cl)C1O (stereo not shown) . criterion met
